# pEC50 per record follows
- Experimental system: human P2Y12 (Homo sapiens, UniProt Q9H244)
- Construct: HA (N)
- Sequence (Q9H244 whole entry): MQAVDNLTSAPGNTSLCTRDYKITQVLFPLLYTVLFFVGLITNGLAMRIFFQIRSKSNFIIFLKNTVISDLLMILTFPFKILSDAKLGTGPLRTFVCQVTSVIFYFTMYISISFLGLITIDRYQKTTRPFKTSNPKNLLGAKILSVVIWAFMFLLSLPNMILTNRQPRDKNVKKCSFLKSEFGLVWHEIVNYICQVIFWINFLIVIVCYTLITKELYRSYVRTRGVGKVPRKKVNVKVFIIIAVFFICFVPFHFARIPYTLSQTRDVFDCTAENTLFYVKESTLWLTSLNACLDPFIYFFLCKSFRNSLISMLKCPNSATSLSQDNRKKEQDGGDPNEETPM
- Assay protocol: Intracellular Ca2+ mobilization, HEK293 co-transfected with P2Y12 wild-type and Gαqi5
- Study conditions: calcium mobilization, HEK293, P2Y12 WT + Gαqi5, mean ± SEM
// field semantics: pEC50 = negative decimal log of concentration (mol/L)

For orientation, consider the following solved cases.
Nc1ncnc2c1ncn2C1OC(COP(=O)(O)OP(=O)(O)OC2OC(CO)C(O)C(O)C2O)C(O)C1O (stereo not drawn) [ADP-Man, ADP-mannose] : 4.91
Nc1ncnc2c1ncn2C1OC(COP(=O)(O)OP(=O)(O)OC2OC(C(=O)O)C(O)C(O)C2O)C(O)C1O (stereo not drawn) [ADP-GlcA, ADP-glucuronic acid] : 5.89

// moving on: another record for pEC50
Input line: Need pEC50 of Nc1ncnc2c1ncn2C1OC(COP(=O)(O)OP(=O)(O)OC2OC(CO)C(O)C(O)C2O)C(O)C1O (stereo not drawn) [ADP-Glc, ADP-glucose] , thanks.
Output line: 5.47
